tested on: compound-treated mice; test: Neuropharmacological assay (SmartCube): behavioral activity signature and minimal effective dose; type: in vivo; details: Mus musculus, ip, MED = dose having 50% or more total activity, read-out: Potency: minimal effective dose (MED), binned
Would you kindly list minimal effective dose for each of these compounds?

1. CC[C@H]1OCc2ccc(F)cc2[C@@H]1N.Cl    < 3 mg/kg
2. Cl.N[C@H]1c2ccccc2CO[C@H]1CF (relative stereo)    3 to 10 mg/kg
3. C[C@@H]1OCc2ccc3c(c2[C@@H]1N)CCCC3.Cl    10 to 30 mg/kg
4. C[C@H]1OCc2ccc(F)cc2[C@H]1N    3 to 10 mg/kg
5. C[C@@H]1OCc2ccc(F)cc2[C@@H]1N    < 3 mg/kg
6. C[C@H]1OCc2ccc3c(c2[C@@H]1N)CCCC3.Cl    3 to 10 mg/kg
7. Cc1cc2c(cc1C)[C@H](N)[C@H](C)OC2.Cl    10 to 30 mg/kg
8. Cc1cccc2c1[C@H](N)[C@H](C)OC2 (single isomer, unassigned)    < 3 mg/kg

Could you tell me minimal effective dose for each of these compounds? They are listed below.
1. CC[C@H]1OCc2ccccc2[C@@H]1NC.Cl
2. COc1cccc2c1[C@H](N)[C@H](C)OC2.Cl

Solution:
10 to 30 mg/kg
3 to 10 mg/kg

Could you tell me minimal effective dose for each of these compounds? They are listed below.
1. CCN(C)C(=O)Oc1ccc2c(c1)CO[C@H](C)[C@H]2N.Cl
2. CCN(C)C(=O)Oc1ccc2c(c1)CO[C@H](C)[C@H]2N(C)C.Cl
3. Cc1ccc(Cl)c2c1[C@H](N)COC2 (single isomer, unassigned)
4. Cc1ccc2c(c1)[C@H](N)[C@H](C(C)C)OC2
5. Cc1ccc(Cl)c2c1[C@H](N)[C@@H](C)OC2.Cl
6. CC[C@H]1OCc2ccccc2[C@@H]1N.Cl (single isomer, unassigned)
7. Cc1ccc2c(c1)CO[C@H](C)[C@@H]2N

Solution:
1: 3 to 10 mg/kg; 2: 10 to 30 mg/kg; 3: < 3 mg/kg; 4: 3 to 10 mg/kg; 5: 3 to 10 mg/kg; 6: < 3 mg/kg; 7: 3 to 10 mg/kg

Could you tell me minimal effective dose for each of these compounds? They are listed below.
1. C[C@H]1OCc2ccc3c(c2[C@@H]1N)CCCO3.Cl
2. Cc1cccc2c1[C@H](N)[C@@H](C)OC2 (single isomer, unassigned)
3. CCc1ccc2c(c1)[C@H](N)[C@H](C)OC2.Cl

Solution:
3 to 10 mg/kg
< 3 mg/kg
3 to 10 mg/kg

====

Would you kindly list minimal effective dose for each of these molecules?
Test system: compound-treated mice
Experiment: Neuropharmacological assay (SmartCube): behavioral activity signature and minimal effective dose
Format: in vivo
Conditions: Mus musculus, ip, MED = dose having 50% or more total activity, read-out: Potency: minimal effective dose (MED), binned
Source text: Neurosci. 2011 Sep. 9; 5:103 (doi: 10.3389/fnins.2011.00103) (“Roberds”). […] To facilitate testing of multiple compounds for behavioral effects relevant to psychiatric disease, PsychoGenics, Inc. (Tarrytown, N.Y., “PGI”) developed SmartCube™, an automated system in which behaviors of compound-treated mice are captured by digital video and analyzed with computer algorithms. […] where LOQ is the limit of quantification. […]

Some solved cases for reference:
1) CCN(C)C(=O)Oc1ccc2c(c1)[C@H](N(C)C)[C@@H](C)OC2.Cl    > 30 mg/kg
2) Cc1cccc2c1[C@@H](N)[C@H](C)OC2 (single isomer, unassigned)    3 to 10 mg/kg
3) CCN(C)C(=O)Oc1ccc2c(c1)CO[C@@H](C)[C@H]2N(C)C.Cl    3 to 10 mg/kg
4) C[C@H]1OCc2c(F)cccc2[C@@H]1N.Cl    3 to 10 mg/kg
5) COc1cccc2c1CO[C@H](C)[C@H]2N.Cl    > 30 mg/kg

Could you tell me minimal effective dose for each of these molecules? They are listed below.
1. Cc1ccc(Cl)c2c1[C@@H](N)COC2 (single isomer, unassigned)
2. CC[C@H]1OCc2ccc(F)cc2[C@H]1N
3. Cc1ccc(C)c2c1COC[C@H]2N (single isomer, unassigned)
4. C#CCN[C@H]1COCc2ccccc21.Cl
5. CC[C@@H]1OCc2ccc(C)cc2[C@H]1N (single isomer, unassigned)
6. CC[C@@H]1OCc2ccccc2[C@@H]1N (single isomer, unassigned)

Solution:
1. 3 to 10 mg/kg
2. < 3 mg/kg
3. 3 to 10 mg/kg
4. 3 to 10 mg/kg
5. 10 to 30 mg/kg
6. < 3 mg/kg

====

test system: compound-treated mice; experiment: Neuropharmacological assay (SmartCube): behavioral activity signature and minimal effective dose; assay type: in vivo; details: i.p. 15 min before test, most efficacious dose(s)
property: CE: cognitive enhancer (probability of activity signature)

1) N[C@H]1COCc2ccc3ccccc3c21 (single isomer, unassigned)    ++ (5% ≤ ++ <25%)
2) CCCN[C@H]1c2ccccc2CO[C@H]1C.Cl    + (LOQ ≤ + <5%)
3) CC(C)C[C@@H]1OCc2ccccc2[C@@H]1N    + (LOQ ≤ + <5%)
4) C[C@@H]1OCc2ccc3c(c2[C@@H]1N)CCCO3.Cl    ++ (5% ≤ ++ <25%)
5) N[C@@H]1COCc2cccc(Cl)c21    ++ (5% ≤ ++ <25%)

Could you tell me CE: cognitive enhancer (probability of activity signature) for each of these compounds? They are listed below.
1. CC[C@H]1OCc2ccccc2[C@H]1N (single isomer, unassigned)
2. CN(C)C1COCc2ccccc21.Cl (stereo not shown)
3. CN[C@@H]1COCc2ccc(OC)cc21
4. CCc1ccc2c(c1)[C@H](N)[C@H](C)OC2.Cl
5. Cc1cccc2c1C(N)CCOC2.Cl (stereo not shown)

Solution:
["++ (5% ≤ ++ <25%)", "++ (5% ≤ ++ <25%)", "++ (5% ≤ ++ <25%)", "++ (5% ≤ ++ <25%)", "++ (5% ≤ ++ <25%)"]

====

tested on: compound-treated mice; assay: Neuropharmacological assay (SmartCube): behavioral activity signature and minimal effective dose; assay type: in vivo; settings: i.p. 15 min before test, most efficacious dose(s)
Where a name gives a salt, the structure may show the parent alone.
property: CE: cognitive enhancer (probability of activity signature)

1. CCc1cccc2c1COCC2N.Cl (centres unmarked) [Example 17, 8-Ethylisochroman-4-amine hydrochloride]    ++ (5% ≤ ++ <25%)
2. CCC[C@@H]1OCc2ccccc2[C@@H]1N [Example 250]    + (LOQ ≤ + <5%)
3. C[C@@H]1OC[C@@H](N(C)C)c2ccccc21 (stereo in doubt) [Example 239, hydrochloride]    ++ (5% ≤ ++ <25%)
4. C#CCN[C@@H]1c2ccccc2CO[C@H]1C.Cl [Example 267]    + (LOQ ≤ + <5%)

Please turn your attention to the following entry.
Measured CE: cognitive enhancer (probability of activity signature) (compound-treated mice), entry Cc1ccc2c(c1)[C@@H](N)COC2 [Example 124] : ++ (5% ≤ ++ <25%)

====

test system: compound-treated mice; assay: Neuropharmacological assay (SmartCube): behavioral activity signature and minimal effective dose; type: in vivo; details: i.p. 15 min before test, most efficacious dose(s)
property: AG: analgesic (probability of activity signature)

Some solved cases for reference:
1. C[C@@H]1OCc2ccc3ccccc3c2[C@@H]1N.Cl (single isomer, unassigned) [Example 91]    ++ (5% ≤ ++ <25%)
2. C[C@H]1OCc2ccccc2[C@@H]1N (single isomer, unassigned) [Example 151]    ++ (5% ≤ ++ <25%)
3. CC[C@@H]1OCc2cccc(Cl)c2[C@@H]1N (single isomer, unassigned) [Example 218]    + (LOQ ≤ + <5%)
4. CC[C@H]1OCc2ccccc2[C@@H]1NC.Cl [Example 259]    + (LOQ ≤ + <5%)
5. Cl.NC1COCc2c1ccc1ccccc21 (stereo not shown) [Example 50]    ++ (5% ≤ ++ <25%)
6. Cc1ccc2c(c1)CO[C@@H](C)[C@H]2N [Example 189]    ++ (5% ≤ ++ <25%)
7. Cl.NC1COCc2cccc(F)c21 (stereo not shown) [Example 22]    ++ (5% ≤ ++ <25%)
8. C#CCN[C@H]1COCc2ccccc21.Cl [Example 266]    + (LOQ ≤ + <5%)
9. Cc1ccc2c(c1Cl)C(N)COC2.Cl (stereo not shown) [Example 45]    ++ (5% ≤ ++ <25%)

Please turn your attention to the following entry.
The compound Cl.NC1COCc2ccc(C(F)(F)F)cc21 (stereo not shown) [Example 9] showed AG: analgesic (probability of activity signature) equal to ++ (5% ≤ ++ <25%)

====

tested on: compound-treated mice; experiment: Neuropharmacological assay (SmartCube): behavioral activity signature and minimal effective dose; type: in vivo; settings: i.p. 15 min before test, most efficacious dose(s)
property: CE: cognitive enhancer (probability of activity signature)

Some solved cases for reference:
1) COc1ccc2c(c1)[C@H](N)[C@@H](C)OC2.Cl    ++ (5% ≤ ++ <25%)
2) Cc1ccc2c(c1C)C(NCCO)COC2.Cl (centres unmarked)    ++ (5% ≤ ++ <25%)
3) Cl.NC1COCc2ccc3c(c21)CCCC3 (centres unmarked)    ++ (5% ≤ ++ <25%)
4) CN[C@H]1COCc2ccc(C)c(C)c21    ++ (5% ≤ ++ <25%)
5) Cc1ccc2c(c1)[C@H](N)[C@@H](C)COC2.Cl (relative stereo)    ++ (5% ≤ ++ <25%)
6) CN[C@H]1COCc2cccc(Cl)c21    ++ (5% ≤ ++ <25%)
7) C[C@@H]1OCc2cccc(Cl)c2[C@@H]1N.Cl    + (LOQ ≤ + <5%)
8) CC[C@@H]1OCc2ccccc2[C@@H]1NC.Cl    + (LOQ ≤ + <5%)
9) C[C@@H]1OCc2ccc3c(c2[C@@H]1N)CCCC3.Cl    ++ (5% ≤ ++ <25%)

Measured CE: cognitive enhancer (probability of activity signature) (compound-treated mice), entry Cc1cc(C)c2c(c1)C(N)COC2.Cl (centres unmarked) : ++ (5% ≤ ++ <25%)
